molecular target: purified HLA DRB1 *0404 (Homo sapiens, UniProt P01903+P01911, A100R/A169T/F76Y/I96L/K127E/L162R/M171V/N62H/P40V/Q125Y/R42H/S133A/S149N/S66Y/V209L/W38E); test: IC50nM to purified HLA | DRB1 *0404
Where no end group is shown, it is not given here.
Entries and their measured IC50 follow.
Report the value in nM with no unit label.

Query: IC50; subject: AAAYFVAAWTLKAAA [SEQ ID NO: 20]
1.4

====

target: purified HLA DRB1 *1101 (Homo sapiens, UniProt P01903+P01911, A100R/A169T/A87E/I96F/K41T/L162R/M171V/P40S/Q125H/Q178H/Q39Y/Q99D/R42S/S66Y/T262R/V115G/W38E); assay: IC50nM to purified HLA | DRB1 *1101
Sequence (P01903 26-254 limits assumed, other chains not shown): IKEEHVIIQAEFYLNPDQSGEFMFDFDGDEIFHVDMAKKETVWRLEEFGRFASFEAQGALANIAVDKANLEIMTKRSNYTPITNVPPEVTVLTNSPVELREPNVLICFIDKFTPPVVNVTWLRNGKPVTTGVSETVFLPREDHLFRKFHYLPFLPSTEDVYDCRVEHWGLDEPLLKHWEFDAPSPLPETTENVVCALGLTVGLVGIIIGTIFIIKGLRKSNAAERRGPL
Where no end group is shown, it is not given here.
Experimental readout: IC50 (nM)
Report the value in nM with no unit label.

Here's what some known entries look like.
Residue string | Experimental readout | Unit of measurement | Measured number
AAAFFVAAWTLKADA [SEQ ID NO: 16] | IC50 | nM | 65
AAAFFVAAYTLKADA [SEQ ID NO: 17] | IC50 | nM | 55
AAAFFVAAFTLKADA [SEQ ID NO: 18] | IC50 | nM | 57
AAAFFVAANTLKADA [SEQ ID NO: 19] | IC50 | nM | 46
AAAWFVAAWTLHAAA [SEQ ID NO: 7] | IC50 | nM | 32

Query: IC50; subject: AAAFFVAAWTLKAAA [SEQ ID NO: 11]
27

Query: IC50; subject: AAAKFVAAWTLKAAA [SEQ ID NO: 4]
11

Query: IC50; subject: AAAYFVAAWTLKAAA [SEQ ID NO: 20]
11

Query: IC50; subject: AAAFFVAANTLHAAA [SEQ ID NO: 15]
42

====

Entries and their measured IC50 follow.
target: HLA DRB1 *0901 (Homo sapiens, UniProt P01903+P01911, A100R/A103E/D57H/D86V/F55Y/F60I/F76Y/I96F/K127E/L162R/M171V/P40D/Q125H/Q99R/R33Q/R42F/S133A/S66N/T210M/V115G/W38K/Y107V/Y59G/Y89S); experiment: IC50nM to purified HLA | DRB1 *0901
Where no end group is shown, it is not given here.
Report the value in nM with no unit label.

Here's what some known entries look like.
Residue string | Measured number
AAANFVAANTLKADA [SEQ ID NO: 58] | 109
AAAIFVAANTLHAAA [SEQ ID NO: 72] | 75
AAAQFVAAFTLHAAA [SEQ ID NO: 66] | 31
AAAIFVAAFTLHAAA [SEQ ID NO: 71] | 80
AAANFVAAFTLHAAA [SEQ ID NO: 53] | 41
AAAQFVAAYTLHAAA [SEQ ID NO: 65] | 21

Query: IC50; subject: AAANFVAAYTLKAEA [SEQ ID NO: 60]
43

Query: IC50; subject: AAANFVAAYTLKADA [SEQ ID NO: 56]
44
